Reported kon values for a set of binders
- testedSystem: T1, recombinant human IL-6R-extracellular domain (ECD) (human, UniProt P08887 20-365)
- T1 construct: extracellular domain; also called IL-6R-ECD
- T1 sequence (looked up): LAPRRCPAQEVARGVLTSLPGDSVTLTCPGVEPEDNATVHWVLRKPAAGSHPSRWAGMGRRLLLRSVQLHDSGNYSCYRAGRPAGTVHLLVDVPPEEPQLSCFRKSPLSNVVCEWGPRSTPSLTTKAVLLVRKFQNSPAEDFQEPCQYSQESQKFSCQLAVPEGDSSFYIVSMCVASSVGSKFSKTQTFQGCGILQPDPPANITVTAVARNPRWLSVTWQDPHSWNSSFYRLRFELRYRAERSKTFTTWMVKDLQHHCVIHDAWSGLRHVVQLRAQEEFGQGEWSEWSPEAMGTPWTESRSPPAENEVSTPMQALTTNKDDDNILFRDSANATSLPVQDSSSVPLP
- testMethodNotes: SPR
The reply should be a number in M⁻¹ s⁻¹, with the unit left off.

Consider the following illustrative entries.
binder: clone 5 rabbit anti-IL-6R antibody (antibody, V domains shown) VH: QSLEESGGRLVTPGTPLTLTCTVSGIDLSRYWMSWVRQAPGKGLEWIGMISGGNTWYASWAKGRFTISKTSTTVDLKITSPTTEDTATYFCARGIDTGIATTFNLWGPGTLVTVSS VL: AQVLTQTPSSVSAAVGGTVTISCQSSQSVYNNNRLSWFQQKPGQPPKLLIYYASTLASGVPSRFKGSGSGTQFTLTISDLECDDAATYYCQGYYSGVINVFGGGTEVVVK
value: 533000
--
binder: clone 51 rabbit anti-IL-6R antibody (antibody, V domains shown) VH: QSVEESGGRLVTPGTPLTLTCTASGFDISSYSLQWVRQSPGKGLEYIGFIRPDGSAHYATWAKGRFTISKTSSTTVDLKMTSLTTEDTATYFCARDDISSDYFPNLWGPGTLVTVSS VL: QVLTQTPSPVSAAVGGTVTISCQASESVYNKNNLAWYQQKPGQPPKLLIYDASDLASGVSSRFKGSGSGTQFTLTISDLECADAATYYCAGGGSGNVYDFGGGTEVVVK
value: 393000
--
binder: humanized clone #36 anti-IL-6R antibody (antibody, human IgG1, kappa, V domains shown, Humanized VH cloned into human IgG1 CH vector, humanized VK into human CK vector; also called Humanized 36; humanized 36) VH: EVQLVESGGGLVQPGGSLRLSCAVSGFSLSSYYMSWVRQAPGKGLEWIGITTTSTNTFYASWAKGRFTISKDSSKNTVYLQMNSPRAEDTAVYFCARYGGNSAYYAFSLWGQGTLVTVSS VL: DIQMTQSPSSLSASVGDRVTISCQSSQSVYNNNYLAWFQQKPGKPPKLLIYGASNLASGVPSRFSGSGSGTQFTLTISSLQPEDVATYYCQGYYNGVIFVFGGGTKVEIKR
value: 589000
--
binder: clone 36 rabbit anti-IL-6R antibody (antibody, V domains shown) VH: QSVEESGGRLVTPGTPLTLTCTVSGFSLSSYYMSWVRQAPGKGLEWIGITTTSTNTFYASWAKGRFTISKTSATVDLKITSPTIEDTATYFCARYGGNSAYYAFSLWGQGTLVTVSS VL: QVLTQTASSVSAAVGGTVTISCQSSQSVYNNNYLAWFQQKPGQPPKLLIYGASNLASGVPSRFKGSGSGTQFTLTISDLECDNAATYYCQGYYNGVIFVFGGGTEVVVK
value: 538000

## Task # kon lookup, item humanized clone #51 anti-IL-6R antibody (antibody, human IgG1, kappa, V domains shown, Humanized VH cloned into human IgG1 CH vector, humanized VK into human CK vector; also called Humanized 51; humanized 51) VH: EVQLVESGGGLVQPGGSLRLSCAASGFDISSYSLQWVRQSPGKGLEYIGFIRPDGSAHYATWAKGRFTISKDSSKNTVYLQMNSLRAEDTAVYFCARDDISSDYFPNLWGPGTLVTVSS VL: DIQMTQSPSTLSASVGDRVTISCQASESVYNKNNLAWYQQKPGKPPKLLIYDASDLASGVPSRFSGSGSGTQFTLTISSLQPDDFATYYCAGGGSGNVYDFGGGTKVEIKR
## Result 311000
